Every entry's value here was drawn from patent US20250042957A1.

tgt: T1, VEGF165 (UniProt P15692-4 27-191, biotinylated in the ELISA of Example 4 (site not stated))
T1 construct: also called biotinylated VEGF165; soluble VEGF
experiment description: SPR (ProteOn), VEGF165 immobilized, multi-trace 50-0.195 nM, 25 C
measured metric: koff
A bare number is not enough; add the unit after it.

binder="2-in-1 DARPin 15 (SEQ ID NO: 9) (designed binder, N3C mono-domain; purified by its His-tag) DLDKKLLEAARAGQDDEVRILLKAGADVNAKDSTGWTPLHLAAPWGHPEIVEVLLKAGADVNAKDFQGWTPLHLAAAAGHLEIVEVLLKAGADVNAKDWLGWTPLHLAASHGHLEIVEVLLKAGADVNAQDKSGKTPADLAARAGHQDIAEVLQKAA" value_reported="0.0001 s⁻¹"
binder="2-in-1 DARPin 11 (SEQ ID NO: 6) (designed binder, N3C mono-domain; purified by its His-tag) DLDKKLLEAARAGQDDEVRILLKAGADVNAKDSTGWTPLHLAAPWGHPEIVEVLLKAGADVNAKDVYGWTPLHIAAASGHLEIVEVLLKAGADVNAKDWLGWTPLHLAASHGHLEIVEVLLKAGADVNAQDKSGKTPADLAARAGHQDIAEVLQKAA" value_reported="0.0153 s⁻¹"

Next binder, koff to be filled in.
stdin: Output measured koff for this item: 2-in-1 DARPin 12 (SEQ ID NO: 7) (designed binder, N3C mono-domain; purified by its His-tag) DLDKKLLEAARAGQDDEVRILLKAGADVNAKDSTGWTPLHLAAPWGHPEIVEVLLKAGADVNAKDVYGWTPLHLAAAAGHLEIVEVLLKAGADVNAKDWLGWTPLHLAASHGHLEIVEVLLKAGADVNAQDKSGKTPADLAARAGHQDIAEVLQKAA
stdout: 0.0106 s⁻¹
